System: SF-539 CNS
MEASUREMENT NOTES: NCI-60 one-dose screen, 48 h (100 = growth as untreated, 0 = no growth, -100 = all killed)
EXPERIMENTAL SETUP: 10 µM unless noted
Compounds without any hit were thinned out: in the full panel of roughly 83,000, 20% have a hit.
Decision: growth compared against 90%; not below it gives met, below it gives not met.

O=C(C[n+]1ccnc2ccccc21)c1ccc(O)c(O)c1 = not met
CCOC(=O)c1nn(-c2ccccc2)c(=O)c2c(N)c(C#N)c(-c3cccs3)cc12 = not met
CCOC(=O)c1c(NC(=O)c2ccc(C(C)(C)C)cc2)sc2cc(OCCN3CCCCC3)ccc12 = not met
C/C(=C(/C)C1CC1CCN(C(=O)c1ccccn1)S(=O)(=O)c1ccc(C)cc1)C1CCCCC1 (centres undefined) = met
COc1cc(-c2noc(C[C@@H](NC(=O)OCc3ccccc3)C(C)C)n2)cc(OC)c1OC = met

Quick check, growth >= 90%? CS(=O)(=O)c1ccc(-c2nn(-c3ccccc3)cc2/C=C/C(=O)c2ccc(Br)cc2)cc1
met

Quick check, growth >= 90%? CCN(CC)Cc1c(-c2cccc(OC(F)(F)F)c2)[nH]c2ccc(N3CCCC3)cc2c1=O
met
